- tgt: human Gal-3 (hGal-3) (Homo sapiens (Human))
- Sequence (P17931 whole entry): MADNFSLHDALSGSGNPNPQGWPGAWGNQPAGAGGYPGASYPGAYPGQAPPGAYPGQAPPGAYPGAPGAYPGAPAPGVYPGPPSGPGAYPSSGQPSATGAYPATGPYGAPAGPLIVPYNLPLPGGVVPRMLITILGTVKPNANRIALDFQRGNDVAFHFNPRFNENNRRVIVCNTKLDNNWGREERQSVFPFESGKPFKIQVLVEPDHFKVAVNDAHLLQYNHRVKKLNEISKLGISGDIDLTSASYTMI
pIC50: −log10 of the molar value.
Values of pIC50 greater than or equal to 7 map to yes; values below map to no.

Here's what some known entries look like.
compound	labelValue
CO[C@@H]1[C@@H](n2cc(-c3cc(F)c(F)c(F)c3)nn2)[C@@H](O)[C@@H](CO)O[C@@H]1Cc1cn(C2CCN(C(=O)OCc3ccccc3)CC2)nn1 [Example 4.13]	yes
CO[C@@H]1[C@@H](n2cc(-c3cc(F)c(F)c(F)c3)nn2)[C@@H](O)[C@@H](CO)O[C@@H]1CC1CC(C2CCN(C(C)=O)CC2)=NO1 (mixture of isomers) [Example 3.05]	no
COC(=O)N1CCC(c2cc(C[C@H]3O[C@H](CO)[C@H](O)[C@H](n4cc(-c5cc(F)c(F)c(F)c5)nn4)[C@H]3OC)no2)CC1 [Example 3.32]	yes
CO[C@@H]1[C@@H](n2cc(-c3cc(F)c(F)c(F)c3)nn2)[C@@H](O)[C@@H](CO)O[C@@H]1Cc1cc(C2CCN(S(=N)(=O)C(C)(C)C)CC2)on1 (mixture of isomers) [Example 3.56]	yes
OC[C@H]1O[C@H](Cc2cc(C3CCC(O)CC3)on2)[C@H](O)[C@@H](n2cc(-c3cc(F)c(F)c(F)c3)nn2)[C@H]1O (stereo partly shown) [Example 2.13]	no

Confirm if pIC50 reported for the compound CO[C@@H]1[C@@H](n2cc(-c3cc(F)c(F)c(F)c3)nn2)[C@@H](O)[C@@H](CO)O[C@@H]1Cc1cn(C2CC[S+]([O-])CC2)nn1 (stereo partly shown) [Example 4.15] is 7 or above.
no

Check if pIC50 >= 7 (inclusive). Item: CS(=O)(=O)N1CCC(c2cc(C[C@H]3O[C@H](CO)[C@H](O)[C@H](n4cc(-c5cc(F)c(F)c(F)c5)nn4)[C@H]3O)no2)CC1 [Example 3.28]
yes

Reported pIC50 at or above 7? CO[C@@H]1[C@@H](n2cc(-c3cc(F)c(F)c(F)c3)nn2)[C@@H](O)[C@@H](CO)O[C@@H]1Cc1cn(C2CCS(=O)(=NCc3ccccc3)CC2)nn1 (stereo partly shown) [Example 4.28]
yes

Dear colleague, could you confirm whether OC[C@H]1O[C@H](Cc2cc(C3CCCC3)on2)[C@H](O)[C@@H](n2cc(-c3cc(F)c(F)c(F)c3)nn2)[C@H]1O [Ex 1.57] has pIC50 at or above 7?
no

For this compound, is measured pIC50 7 or higher? CC(=O)N1CCC(C2=NO[C@@H](C[C@H]3O[C@H](CO)[C@H](O)[C@H](n4cc(-c5cc(F)c(F)c(F)c5)nn4)[C@H]3O)C2)CC1 [Example 3.10]
no

Kindly determine if pIC50 recorded for CO[C@@H]1[C@@H](n2cc(-c3cc(F)c(F)c(F)c3)nn2)[C@@H](O)[C@@H](CO)O[C@@H]1CN1CC(=O)N(C2CCN(C(C)=O)CC2)C1 [Example 6.08] is above or exactly 7.
yes

Exam item: decide whether the reported pIC50 for OCc1cc(C[C@H]2O[C@H](CO)[C@H](O)[C@H](n3cc(-c4cc(F)c(F)c(F)c4)nn3)[C@H]2O)no1 [Ex 1.43] is at least 7.
no

Would you say CO[C@@H]1[C@@H](n2cc(-c3cccc(F)c3)nn2)[C@@H](O)[C@@H](CO)O[C@@H]1Cc1cc(C2CCN(C(=O)OC(C)(C)C)CC2)on1 [Ex 1.228] shows pIC50 at minimum 7?
no

Record CO[C@@H]1[C@@H](n2cc(-c3cc(F)c(F)c(F)c3)nn2)[C@@H](O)[C@@H](CO)O[C@@H]1CC1=NO[C@H](C2CCCCC2)C1 [Ex 1.129] ; criterion: pIC50 no lower than 7. Met?
no
